Test system: MOLT-4 leukemia
TEST NAME: NCI-60 one-dose screen, 48 h (100 = growth as untreated, 0 = no growth, -100 = all killed)
CONDITION DETAILS: 10 µM unless noted
Description: Growth inhibition of the MOLT-4 human tumor cell line is measured as a screen for anti-cancer activity. Cells are grown in 96 well plates and exposed to the test compound for 48 hours. Compounds are tested at a single concentration, which is 10^-5 M for most compounds. The reported endpoint is percent growth (GI% or GIPRCNT), where numbers from 0 - 100% represent growth inhibition, and numbers from -100% - 0 represent cell death. For example, a value of 40 represents 60% growth inhibition. […]
The panel holds about 83,000 compounds, 20% with a hit somewhere; the sample as a whole holds those more often.
Recorded growth values for a group of molecules are listed next.
The response must be a number in % with no trailing unit.

# MOLECULE, SYSTEM TESTED, UNIT STRING, growth
records = [
    ("Cc1ccccc1N1CCN(C(=S)c2ccccc2)CC1", "MOLT-4 leukemia", "%", 106),
    ("C=CN(C(=O)N1CCN(c2cc3c(cc2F)c(=O)c(C(=O)O)cn3C2CC2)CC1)c1nc(-c2ccc(Cl)cc2)cs1", "MOLT-4 leukemia", "%", 58.2),
    ("C=C1C(=O)O[C@H]2[C@H]1CC/C(COC(=O)NCc1ccc(Cn3c(=O)sn(-c4ccc(I)cc4)c3=O)cc1)=C\\CC[C@@]1(C)O[C@@H]21", "MOLT-4 leukemia", "%", 5.6),
    ("Clc1ccc(-c2nc(C(Cl)Cl)nc3cc(-c4ccccc4)nn23)cc1", "MOLT-4 leukemia", "%", 31.7),
    ("NCCCNc1nc2ccccc2c2c(=O)c3cc(Cl)ccc3sc12", "MOLT-4 leukemia", "%", -61.8),
]

INPUT: May I ask what growth has been recorded for CCn1cc(C(=O)O)c(=O)c2cc(F)c(N3CCN(CC(=O)Nc4ccccc4)C(C)C3)c(F)c21 (stereo not drawn) ?
OUTPUT: 107
